pKi: −log10 of the molar value.
Recorded pKi for molecules tested on Carbonic anhydrase 1 (Homo sapiens, UniProt P00915), drawn from a number of studies.
Class assignment keyed on pKi, ranges lower band = under 6, central band = from 6 up to 7, upper band = 7 and over

Asked: Category lookup for the molecule `CCCC(CCC)C(=O)Nc1nnc(S(N)(=O)=O)s1`
Given back: upper band

Asked: Category lookup for the molecule `NS(=O)(=O)c1ccc(-c2cc3ccccc3n2S(=O)(=O)c2ccccc2)cc1`
Given back: lower band

Asked: Category lookup for the molecule `NS(=O)(=O)c1ccc(-n2ncc(NCCCN3CCOCC3)c(Cl)c2=O)cc1`
Given back: central band

Asked: Category lookup for the molecule NS(=O)(=O)c1ccc(N/C(S)=N/C(Cc2ccccc2)C(=O)O)cc1 (stereo unspecified)
Given back: upper band

Asked: Category lookup for the molecule `CCc1cc(-c2ccccc2)cc(CC)[n+]1CC(=O)/N=c1/sc(S(N)(=O)=O)nn1C`
Given back: central band

Asked: Category lookup for the molecule `N/C(=N\S(=O)(=O)c1ccccc1SCc1ccc(C(F)(F)F)cc1)NNc1nc(Cl)nc(NCc2ccc(S(N)(=O)=O)cc2)n1`
Given back: central band

Asked: Category lookup for the molecule `NS(=O)(=O)c1ccc(CNC(=O)CNCCNCC(=O)O)cc1`
Given back: lower band

Asked: Category lookup for the molecule `COc1ccc(S(=O)(=O)N(CC(=O)NO)CC(=O)NCCc2ccc(S(N)(=O)=O)cc2)cc1`
Given back: lower band

Asked: Category lookup for the molecule `O=C(/C=C/c1ccco1)N[C@H]1C[C@H](C(=O)NO)N(S(=O)(=O)c2ccc(Cl)c(Cl)c2)C1`
Given back: lower band

Asked: Category lookup for the molecule `O=C(Nc1ccc2c(c1)C(=O)NS2(=O)=O)c1ccc(-c2ccccc2)cc1`
Given back: lower band

Asked: Category lookup for the molecule `CN(C)CCOCCOC(=O)c1ccc(S(=O)(=O)Nc2nnc(S(N)(=O)=O)s2)cc1`
Given back: upper band

Asked: Category lookup for the molecule `Fc1ccccc1CNCc1ccccc1`
Given back: lower band

Asked: Category lookup for the molecule `NS(=O)(=O)c1nc2ccc(OC(=O)CN(CCOCCOCCN(CC(=O)O)CC(=O)O)CC(=O)O)cc2s1`
Given back: upper band

Asked: Category lookup for the molecule `C#CCOc1ccc(/C=N/Cc2ccc(S(N)(=O)=O)cc2)cc1`
Given back: lower band

Asked: Category lookup for the molecule `Cc1c(C(=O)N2CCN(C)CC2)cc(-c2ccc3ccccc3c2)n1-c1ccc(S(N)(=O)=O)cc1`
Given back: lower band

Asked: Category lookup for the molecule `Cn1nc(S(N)(=O)=O)s/c1=N/C(=O)CNC(=O)CN`
Given back: central band

Asked: Category lookup for the molecule `N#CCCN(CCc1ccccc1)CC(=O)N(CCc1ccc(S(N)(=O)=O)cc1)Cc1ccc([N+](=O)[O-])cc1`
Given back: central band

Asked: Category lookup for the molecule `NS(=O)(=O)c1ccc(NNC(=O)CN(CCN(CCN(CC(=O)O)CC(=O)O)CC(=O)O)CC(=O)O)cc1`
Given back: lower band

Asked: Category lookup for the molecule `NS(=O)(=O)c1ccc(-c2noc(-c3ccccn3)n2)cc1`
Given back: upper band

Asked: Category lookup for the molecule `Cn1nc2c(c1Cc1ccccc1)c(=O)oc1ccccc12`
Given back: lower band

Asked: Category lookup for the molecule `NS(=O)(=O)c1ccc(C(=O)c2cccc(C(=O)O)n2)c(Cl)c1`
Given back: central band

Asked: Category lookup for the molecule `COC(=O)Cc1c(C)c2ccc(OCC(=O)c3ccc(F)cc3)cc2oc1=O`
Given back: lower band

Asked: Category lookup for the molecule `O=c1cc(-c2ccccc2Cl)c2ccc(O)cc2o1`
Given back: lower band

Asked: Category lookup for the molecule `Cc1ccc(-n2nc(C)c3c(=O)oc4ccccc4c32)cc1`
Given back: lower band

Asked: Category lookup for the molecule `O=C(Cc1ccccc1Br)Oc1ccc2c(c1)OS(=O)(=O)CC2`
Given back: lower band

Asked: Category lookup for the molecule `CCOc1ccc(S(=O)(=O)N(CC)CC)cc1-c1nnc2c(n1)c(C)nn2C`
Given back: lower band

Asked: Category lookup for the molecule `Cc1cccc(-c2cc(=O)oc3c(C)c(O)ccc23)c1`
Given back: lower band

Asked: Category lookup for the molecule `NS(=O)(=O)c1ccc(C(=O)Nc2ccc([Se][C@@H]3O[C@H](CO)[C@@H](O)[C@H](O)[C@H]3O)cc2)cc1`
Given back: upper band

Asked: Category lookup for the molecule CCCCC(C)C(=O)O (stereo unspecified)
Given back: lower band

Asked: Category lookup for the molecule `CC1=NN(c2ccccc2Cl)C(=O)/C1=N/Nc1cccc(S(N)(=O)=O)c1`
Given back: lower band

Asked: Category lookup for the molecule `CCCCCCN(CCCCCC)CC(=O)N(CCC#N)CCc1ccc(S(N)(=O)=O)cc1`
Given back: central band

Asked: Category lookup for the molecule `CS(=O)(=O)Oc1ccc2c(c1)OS(=O)(=O)C=C2`
Given back: lower band
